Listing of IC50 toward Apoptosis regulator Bcl-2 (Homo sapiens, UniProt P10415), each taken from a published source.
measured_attribute: IC50 (µM)

• CCCCN(CCCC)C(=O)c1nn(-c2ccc(C(=O)NS(=O)(=O)c3ccc4ccccc4c3)cc2C(=O)N2CCc3ccccc3C2)c(C)c1Cl = 0.032
• CCCCN(CCCC)C(=O)c1nn(-c2ccc(C(=O)NS(=O)(=O)c3ccc4c(c3)CCN4Cc3ccc(Cl)c(Cl)c3)cc2C(=O)N2CCc3ccccc3C2)c(C)c1Cl = 0.016
• CCCCN(CCCC)C(=O)c1cc(C)n(-c2cccc(C)c2C(=O)N2Cc3ccccc3C[C@H]2CN)n1 = 0.175
• CCCCNC1=C2C(=NC1=O)c1cccc3c(N4CCSCC4)ccc2c13 = 0.198
• COC(=O)CCCN/C=C1\C(=O)C(O)=C(C(C)C)c2cc(C)c(-c3c(C)cc4c(c3O)/C(=C/NCCCC(=O)OC)C(=O)C(O)=C4C(C)C)c(O)c21 (stereo in doubt; 16) = 0.825
• CCCCc1c(-c2ccc(C(=O)NS(=O)(=O)c3ccc4ccccc4c3)cc2C(=O)N2CCc3ccccc3C2)c(CO)nn1-c1cccc(CO)c1 = 0.071
• Cc1c(C(=O)N2CC(C)(O)C2)c(-c2cccc(N3CCN(c4ccc(NS(=O)(=O)c5ccc(N[C@H](CCN(C)C)CSc6ccccc6)c([N+](=O)[O-])c5)cc4)CC3)c2)c(-c2ccc(Cl)cc2)n1C = 0.0056
• CCCCOc1ccc(-n2nc(CO)c(-c3ccc(C(=O)NS(=O)(=O)c4ccc5ccccc5c4)cc3C(=O)N3CCc4ccccc4C3)c2CCCC)cc1 = 0.045
• N=C(NS(=O)(=O)c1ccc(N[C@H](CCN2CCOCC2)CSc2ccccc2)c(S(=O)(=O)C(F)(F)F)c1)c1ccc(N2CCN(Cc3ccccc3-c3ccc(Cl)cc3)CC2)cc1 = 0.019
• CC(C)C(=O)c1cc(C(=O)c2ccc(Oc3ccccc3)cc2)c(O)c(O)c1O = 2.6
• CN(C)CC[C@H](CSc1ccccc1)Nc1ccc(S(=O)(=O)Nc2ccc(N3CCN(c4cccc(-c5c(-c6ccc(Cl)cc6)cn(CC[C@H](O)CO)c5C(=O)NCCCN5CCN(C)CC5)c4)CC3)cc2)cc1[N+](=O)[O-] = 0.0013
• CCCCN(CCCC)c1nccc(-c2ccc(C(=O)NS(=O)(=O)c3ccc4ccccc4c3)cc2C(=O)N2CCc3ccccc3C2)n1 = 0.7
• CCCCN(CCCC)C(=O)c1nn(-c2ccc(C(=O)NS(=O)(=O)c3ccc4c(c3)CCN4CC)cc2C(=O)N2CCc3ccccc3C2)c(C)c1Cl = 0.078
• N#CC1=C(NCC2CCCCC2)c2ccc(SC3CCCCC3)c3cccc(c23)C1=O = 4.8
• CN1CCC(CNc2ccc(S(=O)(=O)NC(=O)c3ccc(N4CCN(CC5=C(c6ccc(C(F)(F)F)cc6)CC(C)(C)CC5)CC4)cc3Oc3cnc4[nH]ccc4c3)cc2[N+](=O)[O-])C1 (centres undefined) = 0.0024
• CCCCc1c(-c2ccc(C(=O)NS(=O)(=O)c3ccc4cccc(Cl)c4c3)cc2C(=O)N2CCc3ccccc3C2)c(CO)nn1-c1ccc(Oc2cccc(Cl)c2)cc1 = 0.006
• CCCCN(CCCC)C(=O)c1nn(-c2ccc(C(=O)NS(=O)(=O)c3ccc4ccccc4c3)cc2C(=O)N2Cc3ccccc3C[C@H]2COCCCOC)c(C)c1Cl = 0.022
• C[C@H]1[C@@H](OCCN2CCN(c3ccc(C(=O)NS(=O)(=O)c4ccc(NCC5CCOCC5)c([N+](=O)[O-])c4)c(Oc4cnc5[nH]ccc5c4)c3)CC2)O[C@@H]2O[C@]3(C)O[C@]24[C@H]1CC[C@@H](C)[C@@H]4C[C@H]3O = 0.0319
• O=C(NS(=O)(=O)c1ccc(N[C@H](CCN2CCOCC2)CSc2ccccc2)c(S(=O)(=O)C(F)(F)F)c1)c1ccc(N2CCC(C(=O)c3ccccc3-c3ccc(Cl)cc3)CC2)cc1 = 0.065
• CC1(C)CCC(c2ccc(Cl)cc2)=C(CN2CCc3ccc(C(=O)NS(=O)(=O)c4ccc(N[C@H](CCN5CCOCC5)CSc5ccccc5)c(S(=O)(=O)C(F)(F)F)c4)cc3CC2)C1 = 0.193
• O=C(CCCCCNc1cccc2c1C(=O)N(C1CCC(=O)NC1=O)C2=O)NCCCCCCNC(=O)CCCCC(=O)NCCN1C(=O)c2cccc3c(Sc4ccc(Br)cc4)ccc(c23)C1=O (centres undefined) = 13.5
• Cc1c(C(=O)O)c(-c2cccc(N3CCN(c4ccc(NS(=O)(=O)c5ccc(N[C@H](CCN6CC(O)C6)CSc6ccccc6)c(S(=O)(=O)C(F)(F)F)c5)cc4)CC3)c2)c(-c2ccc(Cl)cc2)n1C = 0.0077
• CC1(C)CCC(c2ccc(Cl)cc2)=C(CN2CCN(c3ccc(C(=O)NS(=O)(=O)c4ccc(N[C@@H](CC5CC5)CN5CCOCC5)c(S(=O)(=O)C(F)(F)F)c4)cc3)CC2)C1 = 0.0207
• CCCCc1c(-c2ccc(C(=O)NS(=O)(=O)c3ccc4ccccc4c3)cc2C(=O)N2CCc3ccccc3C2)c(CO)nn1-c1ccccc1 = 0.061
